Examples of compounds with documented EC50 follow.
target: UniProtKB P0C6X1; experiment: 229E Mpro activity; assay type: biochemical; settings: read-out: 229E Mpro EC50
Sequence (P0C6X1 2966-3267 limits assumed): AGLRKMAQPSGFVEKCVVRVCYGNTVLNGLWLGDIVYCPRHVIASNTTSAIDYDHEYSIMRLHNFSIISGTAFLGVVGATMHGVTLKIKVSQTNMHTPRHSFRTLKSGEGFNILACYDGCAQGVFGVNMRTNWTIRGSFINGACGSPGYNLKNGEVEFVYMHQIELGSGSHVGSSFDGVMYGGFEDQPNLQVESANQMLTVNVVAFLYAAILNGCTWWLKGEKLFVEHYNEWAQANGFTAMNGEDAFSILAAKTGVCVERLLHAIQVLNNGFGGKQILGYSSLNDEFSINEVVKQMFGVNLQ
READOUT: EC50

# COMPOUND, MEASURED_RESULT
records = [
    ("COc1ccc(F)c2[nH]c(C(=O)N[C@@H](CC3CC3)C(=O)N[C@H](C#N)C[C@@H]3CCCNC3=O)cc12 [Compound 820]", "< 2 µM"),
    ("N#C[C@H](C[C@@H]1CCNC1=O)NC(=O)C1CC2(CCC2)CN1C(=O)c1cc2ccc(Cl)cc2[nH]1 (single isomer, unassigned) [990 (Isomer 2)]", "< 2 µM"),
    ("CCCN1C(=N)C([C@H](C[C@@H]2CCNC2=O)NC(=O)[C@H](CC(C)C)NC(=O)c2cc3c(OC)cccc3[nH]2)OC1=O (some centres unmarked) [Compound 355]", "2 to 10 µM"),
    ("N#C[C@H](C[C@@H]1CCNC1=O)NC(=O)[C@@H](CC1CC1)n1cccc(NCC(F)(F)F)c1=O (single isomer, unassigned) [467 (Isomer 1)]", "2 to 10 µM"),
    ("COc1cccc2[nH]c(C(=O)N[C@@H](CC(C)C)C(=O)N[C@@H](CC3CCNC3=O)C(C#N)NCc3ccccc3)cc12 (single isomer, unassigned) [507 (Isomer 1.2)]", "< 2 µM"),
    ("COc1cccc2[nH]c(C(=O)N3CC4(CCCC4)C[C@H]3C(=O)N[C@H](C#N)C[C@@H]3CCNC3=O)cc12 (single isomer, unassigned) [401 (Isomer 1)]", "< 2 µM"),
    ("CC1(C)CC(C[C@@H](C#N)NC(=O)C2CC3(CCCCC3)CN2C(=O)c2cc3cccc(Cl)c3[nH]2)C(=O)N1 (single isomer, unassigned) [930 (Isomer 3)]", "< 2 µM"),
    ("N#C[C@H](C[C@@H]1CCNC1=O)NC(=O)C1CC2(CCCCC2)CN1C(=O)c1cc2ccc(Cl)c(Cl)c2[nH]1 (single isomer, unassigned) [986 (Isomer 1)]", "< 2 µM"),
    ("COc1cccc2[nH]c(C(=O)N[C@@H](CC3CC3)C(=O)N[C@@H](C#N)C[C@@H]3CCCNC3=O)cc12 [Compound 491B]", "10 to 30 µM"),
    ("COc1ccc2[nH]c(C(=O)N3CC4(CCCCC4)CC3C(=O)N[C@H](C#N)C[C@@H]3CCNC3=O)cc2c1Cl (single isomer, unassigned) [880 (Isomer 1)]", "10 to 30 µM"),
    ("CC(C)(C)C[C@H](NC(=O)c1cc2c(F)cccc2[nH]1)C(=O)N[C@H](C#N)C[C@@H]1CCCNC1=O [Compound 816]", "> 30 µM"),
    ("CN1CCCC[C@]12CCN([C@H](CC1CC1)C(=O)N[C@H](C#N)C[C@@H]1CCNC1=O)C2=O [Compound 273A]", "> 30 µM"),
    ("N#C[C@H](C[C@@H]1CCCNC1=O)NC(=O)[C@H](CC1CC1)NC(=O)c1cc2ccc(Cl)c(Cl)c2[nH]1 [Compound 727]", "< 2 µM"),
    ("CC1(C)CC(C[C@@H](C#N)NC(=O)C2CC3(CCCCC3)CN2C(=O)c2cc3cccc(Cl)c3[nH]2)C(=O)N1 (single isomer, unassigned) [930 (Isomer 2)]", "> 30 µM"),
    ("COc1ccc(Cl)c2[nH]c(C(=O)N3CC4(CCCCC4)CC3C(=O)NC(C#N)C[C@@H]3CCCNC3=O)cc12 (single isomer, unassigned) [902 (Isomer 4)]", "> 30 µM"),
    ("COc1cccc2[nH]c(C(=O)N3CC[C@H](c4ccccc4)[C@H]3C(=O)N[C@H](C#N)C[C@@H]3CCNC3=O)cc12 [Compound 163]", "10 to 30 µM"),
    ("N#Cc1ccc2[nH]c(C(=O)N[C@@H](CC3CC3)C(=O)N[C@H](C#N)C[C@@H]3CCCNC3=O)cc2c1 [Compound 860]", "< 2 µM"),
    ("N#C[C@H](C[C@@H]1CCCNC1=O)NC(=O)C1CC2(CCC(F)(F)CC2)CN1C(=O)c1cc2cccc(Cl)c2[nH]1 (single isomer, unassigned) [805 (Isomer 2)]", "< 2 µM"),
    ("COc1cccc2[nH]c(C(=O)N[C@@H](CC3CC3)C(=O)N[C@@H](C#N)C[C@@H]3CCCNC3=O)cc12 (single isomer, unassigned) [491 (Isomer 2)]", "> 30 µM"),
    ("N#C[C@H](C[C@@H]1CCNC1=O)NC(=O)C1CC2(CCCCC2)CN1C(=O)c1cc2cccc(Cl)c2[nH]1 (single isomer, unassigned) [984 (Isomer 2)]", "> 30 µM"),
    ("N#C[C@]1(NC(=O)[C@H](CC2CC2)NC(=O)OCc2ccccc2)C[C@H]2CC[C@@H]1[C@H]1C(=O)NC(=O)[C@@H]21 (single isomer, unassigned) [495 (Isomer 1)]", "> 30 µM"),
    ("CN1CCCC[C@@]12CCN([C@H](CC1CC1)C(=O)N[C@H](C#N)C[C@@H]1CCNC1=O)C2=O [Compound 273B]", "> 30 µM"),
    ("N#C[C@H](C[C@@H]1CCCNC1=O)NC(=O)[C@H](CC1CC1)NC(=O)c1cc2ccc(F)c(Br)c2[nH]1 [Compound 850]", "10 to 30 µM"),
]
